Target: Xanthine dehydrogenase/oxidase (Bos taurus, UniProt P80457)
Sequence (P80457 whole entry): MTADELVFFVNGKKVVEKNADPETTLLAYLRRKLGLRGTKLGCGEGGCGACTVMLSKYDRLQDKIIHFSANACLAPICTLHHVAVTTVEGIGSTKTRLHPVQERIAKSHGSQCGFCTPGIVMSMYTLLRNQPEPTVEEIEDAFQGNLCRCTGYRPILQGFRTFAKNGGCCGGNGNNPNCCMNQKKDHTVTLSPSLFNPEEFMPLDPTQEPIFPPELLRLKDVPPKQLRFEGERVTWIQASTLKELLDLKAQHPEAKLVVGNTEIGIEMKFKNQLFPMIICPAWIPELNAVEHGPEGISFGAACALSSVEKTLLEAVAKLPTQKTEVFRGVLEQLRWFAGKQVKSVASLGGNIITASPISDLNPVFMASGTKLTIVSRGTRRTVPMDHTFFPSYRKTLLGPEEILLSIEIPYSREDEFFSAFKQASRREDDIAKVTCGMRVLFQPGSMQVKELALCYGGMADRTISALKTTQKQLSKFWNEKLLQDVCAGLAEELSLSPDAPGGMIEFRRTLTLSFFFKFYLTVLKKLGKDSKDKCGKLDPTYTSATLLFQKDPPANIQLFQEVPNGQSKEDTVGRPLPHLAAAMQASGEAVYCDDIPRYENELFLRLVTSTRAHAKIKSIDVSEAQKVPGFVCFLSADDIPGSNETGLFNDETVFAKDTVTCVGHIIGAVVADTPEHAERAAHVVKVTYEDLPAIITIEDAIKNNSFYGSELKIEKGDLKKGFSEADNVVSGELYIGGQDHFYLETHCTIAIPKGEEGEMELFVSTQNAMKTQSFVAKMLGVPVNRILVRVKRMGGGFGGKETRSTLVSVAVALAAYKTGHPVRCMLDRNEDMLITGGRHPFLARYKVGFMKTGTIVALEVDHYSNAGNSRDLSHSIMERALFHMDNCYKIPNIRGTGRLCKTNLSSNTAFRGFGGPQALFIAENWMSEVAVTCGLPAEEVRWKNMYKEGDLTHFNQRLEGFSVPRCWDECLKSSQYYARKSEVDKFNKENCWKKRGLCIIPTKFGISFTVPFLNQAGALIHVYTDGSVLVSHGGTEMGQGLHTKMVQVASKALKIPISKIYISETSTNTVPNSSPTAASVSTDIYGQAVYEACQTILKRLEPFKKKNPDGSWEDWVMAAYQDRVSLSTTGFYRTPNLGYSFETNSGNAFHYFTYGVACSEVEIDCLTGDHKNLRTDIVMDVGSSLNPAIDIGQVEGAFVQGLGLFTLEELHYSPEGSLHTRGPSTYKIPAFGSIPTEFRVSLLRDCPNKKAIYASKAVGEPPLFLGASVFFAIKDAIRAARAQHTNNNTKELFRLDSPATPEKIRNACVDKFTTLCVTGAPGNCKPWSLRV
Assay: Inhibition of cow milk xanthine oxidase at 50 ug/mL
Conditions: cattle
inhibition at 50 µg/mL overview
Return type: number; implicit unit %.

As a guide, the following entries are already answered.
[[record]]
compound_structure = "COc1c(O)cc(O)c2c(=O)cc(-c3ccccc3)oc12"
measured_attribute = "inhibition at 50 µg/mL"
val = 50.2

[[record]]
compound_structure = "O=c1c(-c2ccc(O)cc2)coc2cc(O)ccc12"
measured_attribute = "inhibition at 50 µg/mL"
val = 0


# ---- query compound ----
*Q* May I ask what inhibition at 50 µg/mL has been recorded for `COc1ccc(-c2cc(=O)c3c(O)c([C@@H]4O[C@H](CO)[C@@H](O)[C@H](O)[C@H]4O)c(OC)cc3o2)cc1` ?
*A* 33.5

Hello, the source for this data is ChEMBL document CHEMBL1150752, in case you need it.
